Measured on: 5HT1a (Homo sapiens)
Sequence (P08908 whole entry): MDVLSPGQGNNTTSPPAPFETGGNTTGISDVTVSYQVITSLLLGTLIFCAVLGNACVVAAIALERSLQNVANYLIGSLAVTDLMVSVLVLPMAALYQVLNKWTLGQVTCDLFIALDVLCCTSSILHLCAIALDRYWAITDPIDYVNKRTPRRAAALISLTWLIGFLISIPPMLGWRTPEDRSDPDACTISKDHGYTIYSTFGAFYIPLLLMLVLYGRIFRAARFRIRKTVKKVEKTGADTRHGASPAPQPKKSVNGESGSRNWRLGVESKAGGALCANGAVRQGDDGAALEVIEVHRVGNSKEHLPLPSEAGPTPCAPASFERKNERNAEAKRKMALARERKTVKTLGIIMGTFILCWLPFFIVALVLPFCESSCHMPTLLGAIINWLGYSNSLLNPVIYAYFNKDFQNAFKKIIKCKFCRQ
Method notes: Cross-reactivity binding, human 5HT1a receptor
Test readout: pKi
Would you please state pKi, meaning minus log10 of the concentration in mol/L, as a bare number?

[in] Check the records and state pKi for Cl.c1ccc(Nc2nc(Nc3ccccc3)c3ccccc3n2)cc1 [Compound 1, Hydrochloride]
[out] 4.51

----------
Measured on: human dopamine D3 receptor (Homo sapiens)
Sequence (P35462 whole entry): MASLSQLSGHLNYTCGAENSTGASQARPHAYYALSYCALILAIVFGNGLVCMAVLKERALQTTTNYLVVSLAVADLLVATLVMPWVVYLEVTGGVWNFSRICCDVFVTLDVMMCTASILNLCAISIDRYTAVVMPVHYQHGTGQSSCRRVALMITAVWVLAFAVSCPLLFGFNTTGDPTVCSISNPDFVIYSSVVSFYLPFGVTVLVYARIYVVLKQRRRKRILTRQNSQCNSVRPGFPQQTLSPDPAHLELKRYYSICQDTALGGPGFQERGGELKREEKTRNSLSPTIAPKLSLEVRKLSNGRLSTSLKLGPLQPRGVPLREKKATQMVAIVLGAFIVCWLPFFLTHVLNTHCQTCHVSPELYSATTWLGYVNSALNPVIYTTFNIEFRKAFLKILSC
Method notes: Cross-reactivity binding, human dopamine D3 receptor
Test readout: Ki

[in] Check the records and state Ki for Cl.c1ccc(Nc2nc(Nc3ccccc3)c3ccccc3n2)cc1 [Compound 1, Hydrochloride]
[out] 2040 nM

----------
Measured on: canine Y5 receptor
Method notes: Porcine ^125I-PYY binding to canine Y5 receptor (COS-7 membranes)
Measurement parameters: COS-7 transient, Table 20 prints no unit, nM
Test readout: Ki (nM)
# output: bare number, implied unit nM

[in] Check the records and state Ki for NC(N)=NCCC[C@@H](NC(=O)C(c1ccccc1)c1ccccc1)C(=O)NCc1ccc(O)cc1
[out] 17000
